- System: T1, PSMA Fab (006 PSMA Fab), biotinylated (biotinylated (site and chain not stated))
- T1 construct: also called Anti-PSMA Fab; anti-PSMA Fab
- Assay Text: phage ELISA; biotinylated PSMA Fab on neutravidin plate, wells first incubated with PSMA antigen as competitor, HRP anti-M13 detection
Where no end group is shown, it is not given here.
Assay Endpoint: Phage binding ELISA signal, Anti-PSMA Fab with PSMA antigen
Reply: number alone, nothing else.

The following binders have reported results that may help.
{"Binder": "ESRLCVPMWMCSGF (Tested as crude clonal phage supernatant; not shown: pIII filament protein of the bacteriophage, fused to the peptide) [Phage-3616, clonal phage showing a Peptide-180 library peptide]", "Value Reported": 0.0707}
{"Binder": "VVVSCTPSWMCTGL (Tested as crude clonal phage supernatant; not shown: pIII filament protein of the bacteriophage, fused to the peptide) [Phage-3606, clonal phage showing a Peptide-180 library peptide]", "Value Reported": 0.0718}
{"Binder": "GWEWCIPEWMCTGL (Tested as crude clonal phage supernatant; not shown: pIII filament protein of the bacteriophage, fused to the peptide) [Phage-3614, clonal phage showing a Peptide-180 library peptide]", "Value Reported": 0.0625}
{"Binder": "LDIVCRPSWMCYGF (Tested as crude clonal phage supernatant; not shown: pIII filament protein of the bacteriophage, fused to the peptide) [Phage-3607, clonal phage showing a Peptide-180 library peptide]", "Value Reported": 0.0774}
{"Binder": "WTFKCEPVWMCEGF (Tested as crude clonal phage supernatant; not shown: pIII filament protein of the bacteriophage, fused to the peptide) [Phage-3605, clonal phage showing a Peptide-180 library peptide]", "Value Reported": 0.101}
{"Binder": "VQPACVPIWMCDGL (Tested as crude clonal phage supernatant; not shown: pIII filament protein of the bacteriophage, fused to the peptide) [Phage-3610, clonal phage showing a Peptide-180 library peptide]", "Value Reported": 0.0782}
{"Binder": "ETMRCEPSWMCIGL (Tested as crude clonal phage supernatant; not shown: pIII filament protein of the bacteriophage, fused to the peptide) [Phage-3613, clonal phage showing a Peptide-180 library peptide]", "Value Reported": 0.0724}
{"Binder": "VDRLCMPIWMCEGL (Tested as crude clonal phage supernatant; not shown: pIII filament protein of the bacteriophage, fused to the peptide) [Phage-3611, clonal phage showing a Peptide-180 library peptide]", "Value Reported": 0.0788}
{"Binder": "DPVMCMPRWMCDGF (Tested as crude clonal phage supernatant; not shown: pIII filament protein of the bacteriophage, fused to the peptide) [Phage-3612, clonal phage showing a Peptide-180 library peptide]", "Value Reported": 0.0916}
{"Binder": "HVAMCQPTWMCMGF (cysteine pairing not given here; also: fused to pIII of bacteriophage, junction and order not given here, Tested as crude clonal phage supernatant; not shown: pIII filament protein of the bacteriophage, fused to the peptide) [Phage-3604, clonal phage showing a Peptide-180 library peptide]", "Value Reported": 0.123}

Q: Consider the binder DFIRCSPIWMCDGF (Tested as crude clonal phage supernatant; not shown: pIII filament protein of the bacteriophage, fused to the peptide) [Phage-3617, clonal phage showing a Peptide-180 library peptide] . State its measured Phage binding ELISA signal, Anti-PSMA Fab with PSMA antigen.
Result: 0.0807

Q: Consider the binder SHMVCKPTWMCQGF (Tested as crude clonal phage supernatant; not shown: pIII filament protein of the bacteriophage, fused to the peptide) [Phage-3609, clonal phage showing a Peptide-180 library peptide] . State its measured Phage binding ELISA signal, Anti-PSMA Fab with PSMA antigen.
Result: 0.074

Q: Consider the binder ETVRCIPSWMCTGL (Tested as crude clonal phage supernatant; not shown: pIII filament protein of the bacteriophage, fused to the peptide) [Phage-3608, clonal phage showing a Peptide-180 library peptide] . State its measured Phage binding ELISA signal, Anti-PSMA Fab with PSMA antigen.
Result: 0.0717

Q: Consider the binder LDRLCLPQWMCVGM (Tested as crude clonal phage supernatant; not shown: pIII filament protein of the bacteriophage, fused to the peptide) [Phage-3615, clonal phage showing a Peptide-180 library peptide] . State its measured Phage binding ELISA signal, Anti-PSMA Fab with PSMA antigen.
Result: 0.0704
